Target of assay: T1, human CD4 on cells (SKW3 cells; human PBMCs) (human, UniProt P01730 26-458)
T1 construct: whole, on cells; SKW3 CD4 knockout cells served as the negative cell line in the primary screen; also called hCD4; huCD4
Test name: FACS binning on SKW3 cells; competitor RPA-T4-PE-Dazzle 594; background 783, max binding 15000
Reported metric: RPA-T4-PE-Dazzle 594 signal with supernatant

Examples with their reported RPA-T4-PE-Dazzle 594 signal with supernatant follow.
[
  {
    "Binder": "75110_14P08A (antibody, V domains shown, Tested as non-clonal AlivaMab Mouse Kappa hybridoma supernatant (detected with anti-mouse Fc gamma and anti-human kappa)) VH: QVQLQESGPGLVKSSETLSLTCTDSGDSIRSYYWNWIRQPAGKGLEWIGRIYASGSTNYNPSLKSRVIMSADTSKNRFSLKLSSVTAADTAVYYCARDGGVGDSLDYWGQGTLVTVSS VL: DIVMTQTPLSLPVTPGEPASISCRSSQSLLDSDDGNTYLDWYLQKPGQSPQLLIYTLSYRASGVPDRFSGSGSGTDFTLKISRVEAEDVGVYYCMQRIEFPFTFGPGTKVDIK",
    "Observed value": 16400
  },
  {
    "Binder": "75110_08F20A (antibody, V domains shown, Tested as non-clonal AlivaMab Mouse Kappa hybridoma supernatant (detected with anti-mouse Fc gamma and anti-human kappa)) VH: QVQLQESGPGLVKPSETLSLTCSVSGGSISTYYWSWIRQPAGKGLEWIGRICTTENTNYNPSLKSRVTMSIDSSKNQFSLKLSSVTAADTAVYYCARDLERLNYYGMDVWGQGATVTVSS VL: DIQMTQSPSSLSASVGDRVTITCQASQDISKYLNWYQQKPGIAPKLLIYDASNLETGVPSRFSGSGSGTDFTFTISSLQPEDFATYYCQQYDSLPITFGQGTRLEIK",
    "Observed value": 15500
  },
  {
    "Binder": "75110_06G04A (antibody, V domains shown, Tested as non-clonal AlivaMab Mouse Kappa hybridoma supernatant (detected with anti-mouse Fc gamma and anti-human kappa)) VH: QVQLLESGPGLVKPSETLSLTCTVSGGSISSYYWSWIRQPAGKGLEWIGRIYISGSTNYNPSLKSRVTMSIDTSENQFSLNLSSVTAADTAVYYCARELERPYYYGMDVWGQGTTVTVSS VL: DIQMTQSPSSLSASVGDRVTITCQASQDISNYLNWYQQKPGKAPKLLIYNASTLETGVPSRFSGSGSGTDFTFTISSLQPEDIATYYCQQYDNLPLTFGGGTKVEFK",
    "Observed value": 16600
  }
]

Could you tell me which RPA-T4-PE-Dazzle 594 signal with supernatant is on file for 75110_06C16A (antibody, V domains shown, Tested as non-clonal AlivaMab Mouse Kappa hybridoma supernatant (detected with anti-mouse Fc gamma and anti-human kappa)) VH: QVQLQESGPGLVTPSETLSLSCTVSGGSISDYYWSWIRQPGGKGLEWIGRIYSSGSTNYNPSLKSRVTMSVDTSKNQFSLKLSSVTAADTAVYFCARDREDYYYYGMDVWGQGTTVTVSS VL: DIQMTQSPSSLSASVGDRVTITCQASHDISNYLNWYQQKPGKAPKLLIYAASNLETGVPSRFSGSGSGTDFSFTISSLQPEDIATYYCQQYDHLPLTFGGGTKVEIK ? 15600
